Just for reference, PubChem BioAssay (NCI) is where these values come from.

- Test system: U251 CNS
- Test Details: NCI-60 one-dose screen, 48 h (100 = growth as untreated, 0 = no growth, -100 = all killed)
- Setup Conditions: 10 µM unless noted
About 83,000 compounds went through this panel and 20% of them were active in at least one assay; those are over-represented in the sample as a whole.
// label = t if growth is not less than 70%, otherwise f

| Compound | Category |
| --- | --- |
| CNC(=O)c1cc(Oc2ccc3c(c2)sc2nc(-c4ccc(OC)cc4)cn23)ccn1 | t |
| CN1C(=O)/C(=C2\SC(=Nc3ccccc3)N(Nc3ccccc3)C2=O)c2ccccc21 | t |
| N#C/C(=C\c1cn(Cc2ccccc2)c2ccccc12)C(=O)Nc1ncc(Cc2ccccc2Cl)s1 | f |
| CNC1=C([N+](=O)[O-])C(c2ccc(OC)cc2)C(C#N)=C(c2cccs2)O1 (stereo unspecified) | t |
| CSC(SC)=C(C#N)c1nc2ccccc2s1 | t |
| Oc1c(CN2CCC(N3CCCCC3)CC2)cc(Cc2cc(CN3CCC(N4CCCCC4)CC3)c(O)c3ncccc23)c2cccnc12 | f |
| COC(=O)c1nc(-c2ccccc2)oc1S(=O)(=O)NCC(c1ccc(Cl)cc1)N1CCOCC1 (stereo unspecified) | t |
| COc1cc2c(c(OC)c1OC)C(=O)CC(c1cccc(NC(=O)c3ccc(C#N)cc3)c1)O2 (stereo unspecified) | t |

IN: Kindly determine if growth recorded for CCN1C(=O)N(CC)C2C1NN=c1s/c(=C\c3ccc[nH]3)c(=O)n12 (stereo unspecified) is above or exactly 70%.
OUT: f

IN: Same question, N[C@H]1CCC[C@@H]1NCCCCN1C(=O)c2cccc3cc([N+](=O)[O-])cc(c23)C1=O this time
OUT: f

IN: What would you report for C=C(C)[C@@H]1CC[C@]2(C(N)=O)CC[C@]3(C)[C@H](CC[C@@H]4[C@@]5(C)CC[C@H](OCCC#N)C(C)(C)[C@@H]5CC[C@]43C)[C@@H]12 ?
OUT: t

====

- System: HOP-92 NSCLC
- Test Details: NCI-60 one-dose screen, 48 h (100 = growth as untreated, 0 = no growth, -100 = all killed)
- Setup Conditions: 10 µM unless noted
Compounds without any hit were thinned out: in the full panel of roughly 83,000, 20% have a hit.
Lab note: anything with growth below 60% is marked criterion met; values at 60% or higher are marked criterion not met.

See these solved cases before continuing.
| Compound | Assayed Target | Category |
| --- | --- | --- |
| CC1(C)N=C(N)N=C(N)N1c1cccc(CCc2ccccc2)c1 | HOP-92 NSCLC | criterion not met |
| O=C(N=Nc1c(O)[nH]c2ccccc12)Nc1ccc(F)cc1 | HOP-92 NSCLC | criterion not met |
| C[C@]1(O)CC(=O)[C@]2(O)C3=C(C=C[C@]2(O)C1)C(=O)c1c(O)cccc1C3=O | HOP-92 NSCLC | criterion met |
| COC(=O)c1c2c(n3ccccc13)C(=O)c1ccccc1C2=O | HOP-92 NSCLC | criterion not met |
| NC(=O)c1c(NC(=O)c2cccs2)sc2c1CCC(=O)C2 | HOP-92 NSCLC | criterion met |

Pending compound:
IN: Given O=C(O)/C=C/C(=O)Nc1cccc(Cn2nnc3cc(Cl)c(Cl)cc32)c1 , is recorded growth strictly lower than 60%?
OUT: criterion not met

====

- Tested on: OVCAR-5 ovarian
- Test Details: NCI-60 one-dose screen, 48 h (100 = growth as untreated, 0 = no growth, -100 = all killed)
- Setup Conditions: 10 µM unless noted
Compounds without any hit were thinned out: in the full panel of roughly 83,000, 20% have a hit.
Measure: growth (%)
Respond numerically; units are % and should not be typed.

Sample records with growth:
| Compound | Measure | Result |
| --- | --- | --- |
| COc1ccc(-c2n[nH]c(=O)c3nc(NC(=S)Nc4ccc(Oc5ccccc5)cc4)sc23)cc1 | growth | 104 |
| CN1CCN(C(=O)C(C)(C)c2ccc(C(=O)Nc3cn4cc(-c5ccncc5)ccc4n3)cc2)CC1 | growth | 18.3 |
| C=C1C(=O)O[C@H]2[C@H]1CC/C(COC(=O)/C=C\C(=O)NCc1ccc(Cn3c(=O)sn(CCCCC)c3=O)cc1)=C\CC[C@@]1(C)O[C@@H]21 | growth | 89 |
| O=C(Cc1ccc(NC(=O)c2cccc(Cl)c2)cc1)NCc1ccccc1 | growth | 73.2 |
| [2H]C([2H])([2H])Oc1ccc(F)cc1/C=C/C(=O)/C=C(O)/C=C/c1cc(F)ccc1OC([2H])([2H])[2H] | growth | 111 |

IN: Which growth value belongs to N#Cc1cncc(-c2ccc3ncnc(Nc4cccc(Cl)c4)c3c2)c1 ?
OUT: 85

IN: Ok, now CCNc1ccc(-c2nc3ccccc3n3cccc23)cc1
OUT: 71

IN: Also need O=C1/C(=C/c2ccccn2)NC(=S)N1c1ccccc1Cl , thanks.
OUT: 68.4

IN: Repeat with NS(=O)(=O)c1ccc(-c2cc(-c3nnc(SCC(=O)Nc4ccc(C(=O)/C=C/c5ccc(Cl)cc5)cc4)n3-c3ccccc3)c3ccccc3n2)cc1
OUT: 93.1

IN: Further, for COc1cc(-c2nc3sccn3c2-c2ccnc(NCCNS(=O)(=O)c3ccc(Cl)cc3)n2)ccc1F ?
OUT: 112

IN: Query Nn1c(=O)c(=O)[nH]c2c(cnn2-c2ccccc2)c1=O next
OUT: 108

IN: Now this one: O=C1NC(=O)/C(=C/c2c(-c3ccccc3)nc3sc(COc4ccccc4)nn23)S1
OUT: 115

IN: Param item: CC1(C)NCCC[C@]2(C)[C@H]3CC[C@H]4[C@H]5[C@H](C(=O)/C=C/c6cccnc6)CCC[C@]5(CO)CC[C@@]4(C)[C@]3(C)CC[C@@H]12
OUT: 74.8

IN: Then this compound: COc1cccc(/C=C/C(=O)c2cccc(Nc3nc(Nc4ccccc4)nc(Nc4ccccc4)n3)c2)c1
OUT: 89

IN: What about c1nc2ccc(-c3cc4ccc5[nH]ncc5c4c4c3CCCC4)cc2[nH]1 ?
OUT: 69.3

====

- System: SK-MEL-2 melanoma
- Test Details: NCI-60 one-dose screen, 48 h
- Setup Conditions: 10 µM unless noted
About 83,000 compounds went through this panel and 20% of them were active in at least one assay; those are over-represented in the sample as a whole. Active and inactive are the calls of the source. The calls were made as follows: active = growth percent below 10; inactive = the rest.
Answer with one of the outcomes given here: yes = active, no = inactive

The examples below pair each entry with its known result.
| Cpd Smiles | Category |
| --- | --- |
| CC/C=C\CCC/C=C1/C(=O)C=C[C@@H]1C/C=C\CCCC(=O)OC | no |
| COC(=O)c1cc(Br)ccc1O | no |
| N=C(N)c1ccc(-c2ccc(-c3ccccc3)s2)cc1 | no |

IN: Lab log entry: O=C(N/N=C/c1cc(Cl)ccc1O)c1ccccc1Nc1ccnc(C(F)(F)F)c1 — outcome as called in the assay?
OUT: no

IN: Next record, please: COc1cccc(Nc2ncnc3cc(NC(=O)CCl)ccc23)c1
OUT: yes

IN: Now this one: O=C(Nc1ccccc1[N+](=O)[O-])c1ccc(Cl)c(Cl)c1
OUT: no

====

- Test system: HCC-2998 colon
- Test Details: NCI-60 one-dose screen, 48 h
- Setup Conditions: 10 µM unless noted
Compounds without any hit were thinned out: in the full panel of roughly 83,000, 20% have a hit. Active and inactive are the calls of the source. The calls were made as follows: active = growth percent below 10; inactive = the rest.
I would appreciate it if you answered using one of these outcomes: 1.0 for active, 0.0 for inactive

Some solved cases for reference:
| Molecule | Category |
| --- | --- |
| CCOC(=O)c1c(C)nc2ccccc2c1/C=C/c1ccccc1 | 0.0 |
| CCN(CC)CCN1C(=O)c2cccc3c(/C=C/CN4C(=O)c5cccc6cccc(c56)C4=O)ccc(c23)C1=O | 0.0 |
| O=S(=O)(NCCCNc1nccc(-c2c(-c3cccc(F)c3)nc3occn23)n1)c1ccc(F)cc1 | 0.0 |

For the next question, use this molecule.
IN: Status in this test for C/C(=N\O)[C@@H]1CC[C@]2(CO)CC[C@]3(C)[C@H](CC[C@@H]4[C@@]5(C)CCCNC(C)(C)[C@@H]5CC[C@]43C)[C@@H]12 ?
OUT: 0.0

====

- Test system: NCI-H226 lung
- Test Details: NCI-60 one-dose screen, 48 h (100 = growth as untreated, 0 = no growth, -100 = all killed)
- Setup Conditions: 10 µM unless noted
Compounds without any hit were thinned out: in the full panel of roughly 83,000, 20% have a hit. Calls of active or inactive are those of the source. Rule for the calls: active = growth percent below 10; inactive = the rest.
Catalogue of growth values

Consider the following illustrative entries.
| Compound | growth |
| --- | --- |
| CN(CCCNC(=O)Cc1ccc2ccc3cccc4ccc1c2c34)CCCNc1cc(-c2ccc3ccccc3c2)nc2ccccc12 | -39.5% (active) |
| Cc1ccc2nc(/C(C#N)=C(/CCCO)NC(Cc3ccccc3)C(=O)OCc3ccccc3)[nH]c(=O)c2c1 (stereo not given) | 103% (inactive) |
| O=S(=O)(NCCCNc1nccc(-c2c(-c3cccc(F)c3)nc3occn23)n1)c1ccc(F)cc1 | 39.6% (inactive) |
| CCc1ccc(CCC(=O)Nc2ncc(Cc3ccccc3)s2)o1 | 64.3% (inactive) |

Now, please, on to the next compound.
IN: Which growth is listed for COc1ccc(/C=C/C(c2cc(OC)c(OC)c(OC)c2)n2cncn2)cc1 (stereo not given) ?
OUT: 76% (inactive)
